Assay: qHTS assay for small molecules that induce genotoxicity in human embryonic kidney cells expressing luciferase-tagged ATAD5 - cell viability (AID 651634); further: nearly all actives have a fitted effect of over 25% in size
Details: HEK293T ATAD5-luc cells viability, CellTiter-Fluor, 15.5 h; series mostly up to 83.3 µM
Results filed as inconclusive are left out. Calls of active or inactive are those of the source. The call rests on the fitted dose curve.
Field 'call' accepts active, inactive

Example entries and their recorded answers appear below.
Data request: Hi team, can someone confirm the assay call for Cc1cc(CC(=O)O)n(C)c1C(=O)c1ccc(Cl)cc1 ?
Data returned: inactive

Data request: Hi team, can someone confirm the assay call for COCN(COC)c1nc(N(COC)COC)nc(N(COC)COC)n1 ?
Data returned: inactive

Data request: Hi team, can someone confirm the assay call for CCOC(=O)c1ccc(O)cc1 ?
Data returned: inactive

Data request: Hi team, can someone confirm the assay call for CC(=O)OC[C@H]1O[C@@](COC(C)=O)(O[C@H]2O[C@H](COC(C)=O)[C@@H](OC(C)=O)[C@H](OC(C)=O)[C@H]2OC(C)=O)[C@@H](OC(C)=O)[C@@H]1OC(C)=O ?
Data returned: inactive

Data request: Hi team, can someone confirm the assay call for NCCNCCNCCN ?
Data returned: inactive

Data request: Hi team, can someone confirm the assay call for O=[N+]([O-])c1ccccc1C(F)(F)F ?
Data returned: inactive

Further cases:
Data request: Hi team, can someone confirm the assay call for CCCCC(CC)COC(=O)c1ccc(C(=O)OCC(CC)CCCC)cc1 (stereo not given) ?
Data returned: inactive

Data request: Hi team, can someone confirm the assay call for O=Cc1ccc(CO)o1 ?
Data returned: inactive

Data request: Hi team, can someone confirm the assay call for CCCCCNCCCCC ?
Data returned: inactive

Data request: Hi team, can someone confirm the assay call for Cc1cc(C)cc(O)c1 ?
Data returned: inactive

Data request: Hi team, can someone confirm the assay call for Cc1cccc(C)c1[N+](=O)[O-] ?
Data returned: inactive

Data request: Hi team, can someone confirm the assay call for C=CC(C)(C)C ?
Data returned: inactive

Data request: Hi team, can someone confirm the assay call for COc1ccc(N)c(OC)c1 ?
Data returned: inactive

Data request: Hi team, can someone confirm the assay call for Cc1ccc([N+](=O)[O-])cc1N ?
Data returned: inactive

Data request: Hi team, can someone confirm the assay call for CCn1cc(C(=O)O)c(=O)c2cc3c(cc21)OCO3 ?
Data returned: inactive

Data request: Hi team, can someone confirm the assay call for NC(N)=S ?
Data returned: inactive

Data request: Hi team, can someone confirm the assay call for CC(COCC(C)OC(=O)c1ccccc1)OC(=O)c1ccccc1 (stereo not given) ?
Data returned: inactive

Data request: Hi team, can someone confirm the assay call for O=c1c(O)c(-c2ccc(O)c(O)c2)oc2cc(O)cc(O)c12 ?
Data returned: active

Data request: Hi team, can someone confirm the assay call for CC/C(C)=N/O ?
Data returned: inactive

Data request: Hi team, can someone confirm the assay call for O=C1C(N(CO)C(=O)NCO)N(CO)C(=O)N1CO (stereo not given) ?
Data returned: inactive

Data request: Hi team, can someone confirm the assay call for CN1CCCC1=O ?
Data returned: inactive

Data request: Hi team, can someone confirm the assay call for Brc1ccc(Oc2ccc(Br)cc2)cc1 ?
Data returned: inactive

Data request: Hi team, can someone confirm the assay call for Cc1ccccc1C=O ?
Data returned: inactive

Data request: Hi team, can someone confirm the assay call for COc1c(Cl)ccc(Cl)c1C(=O)O ?
Data returned: inactive

Data request: Hi team, can someone confirm the assay call for O=C(c1ccccc1)c1ccc(O)c(O)c1O ?
Data returned: inactive

Data request: Hi team, can someone confirm the assay call for O=c1n(CCCN2CCN(c3cccc(Cl)c3)CC2)nc2ccccn12 ?
Data returned: inactive

Data request: Hi team, can someone confirm the assay call for CC(=O)c1nccs1 ?
Data returned: inactive

Data request: Hi team, can someone confirm the assay call for CCCOCC(C)O (stereo not given) ?
Data returned: inactive

Data request: Hi team, can someone confirm the assay call for CCCCCCCCCCCCCC(=O)O ?
Data returned: inactive

Data request: Hi team, can someone confirm the assay call for Cc1ccc(C)c(S(=O)(=O)O)c1 ?
Data returned: inactive
